system: red blood cells; test: In vitro hemolysis; type: cell-based; conditions: Table 3; minimum concentration necessary to lyse red blood cells
measuredParameter: Hemolysis

Answered cases to consult:
1. O=C(O)C(Cc1ccccc1)N1C(=O)/C(=C/c2cccc(Br)c2)SC1=S (centres unmarked) :: ~100 µM
2. CC(/C=C1\SC(=S)N(C(C(=O)O)c2ccccc2)C1=O)=C\c1ccccc1 (centres unmarked) :: ~200 µM
3. O=[N+]([O-])c1ccc(Oc2cc(C(F)(F)F)ccc2Cl)cc1O :: >800 µM

Quick note, Hemolysis for CC(C)(C)C1=NN(c2nc3ccc(Cl)cc3s2)C(=O)C1 landed at >800 µM

Quick note, Hemolysis for Cc1noc(C)c1C(=O)Nc1nc2ccc(Cl)cc2s1 landed at >800 µM

---

Measured IC50 accompanies every entry in the list below.
System: HT-29 (human colorectal adenocarcinoma) cells
Test: Mammalian cell toxicity, CellTiter-Glo cell viability assay
Assay type: cell-based
Settings: HT-29 cells, CellTiter-Glo, read-out: IC50
Procedure: The toxicity of the identified antimicrobial candidate compounds was tested using human colorectal adenocarcinoma cells in vitro. […] The mammalian cells were tested using a CellTiter-Glo cell viability assay (Promega, Madison, Wis.).
Just the number in µM, nothing appended.

Answered cases to consult:
1. CC(C)(C)C1=NN(c2nc3ccc(Cl)cc3s2)C(=O)C1 :: 38
2. COc1ccc(Nc2cc(C(F)(F)F)ccc2Cl)c(C(=O)O)c1 :: 60
3. Cc1noc(C)c1C(=O)Nc1nc2ccc(Cl)cc2s1 :: 51

So the reported IC50 for CC1=NN(c2nc3ccc(Cl)cc3s2)C(=O)C1 , on HT-29 (human colorectal adenocarcinoma) cells, turned out to be 55

---

biological target: Exonuclease I/SSB-Ct complex (Escherichia coli, UniProt P04995); assay: Fluorescence polarization competition: inhibition of fluorescein-SSB C-terminal peptide binding to Exonuclease I (HTS and Ki determination)
Sequence (P04995 whole entry, one chain of several): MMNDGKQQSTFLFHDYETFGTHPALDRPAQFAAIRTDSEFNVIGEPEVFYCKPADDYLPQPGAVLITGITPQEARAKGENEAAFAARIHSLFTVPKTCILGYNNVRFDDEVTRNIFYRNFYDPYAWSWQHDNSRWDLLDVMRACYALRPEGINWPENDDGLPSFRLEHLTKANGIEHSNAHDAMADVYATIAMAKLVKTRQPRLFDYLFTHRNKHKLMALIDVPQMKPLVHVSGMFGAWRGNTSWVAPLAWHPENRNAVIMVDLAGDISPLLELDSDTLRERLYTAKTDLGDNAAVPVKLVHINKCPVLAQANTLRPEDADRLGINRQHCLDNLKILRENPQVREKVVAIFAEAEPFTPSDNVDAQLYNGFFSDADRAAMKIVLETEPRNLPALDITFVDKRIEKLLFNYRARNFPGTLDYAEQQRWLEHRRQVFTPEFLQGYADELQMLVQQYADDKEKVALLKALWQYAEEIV
measuredParameter: pKi
pKi field: float, defined as -log10 of concentration (mol/L).

Answered cases to consult:
1) O=C(O)C(Cc1ccccc1)N1C(=O)/C(=C/c2cccc(Br)c2)SC1=S (stereo not shown) :: 5.60
2) O=C(O)c1ccccc1Nc1cccc(C(F)(F)F)c1 :: 5.82
3) COc1ccc(Nc2cc(C(F)(F)F)ccc2Cl)c(C(=O)O)c1 :: 7.00
4) O=[N+]([O-])c1ccc(Oc2cc(C(F)(F)F)ccc2Cl)cc1O :: 6.15
5) CC(C)(C)C1=NN(c2nc3ccc(Cl)cc3s2)C(=O)C1 :: 6.10
6) CC1=NN(c2nc3ccc(Cl)cc3s2)C(=O)C1 :: 5.82

Now look at this one.
So the reported pKi for CC(/C=C1\SC(=S)N(C(C(=O)O)c2ccccc2)C1=O)=C\c1ccccc1 (stereo not shown) , on Exonuclease I/SSB-Ct complex (Escherichia coli, UniProt P04995), turned out to be 5.40

---

test system: HT-29 (human colorectal adenocarcinoma) cells; assay: Mammalian cell toxicity, CellTiter-Glo cell viability assay; type: cell-based; details: HT-29 cells, CellTiter-Glo, read-out: IC50
measuredParameter: IC50

Answered cases to consult:
1) O=C(O)c1ccccc1Nc1cccc(C(F)(F)F)c1 [Compound 32] :: > 100 µM
2) CC(/C=C1\SC(=S)N(C(C(=O)O)c2ccccc2)C1=O)=C\c1ccccc1 (stereo not drawn) [Compound 8] :: > 100 µM

Now look at this one.
Quick note, IC50 for O=C(O)C(Cc1ccccc1)N1C(=O)/C(=C/c2cccc(Br)c2)SC1=S (stereo not drawn) [Compound 3] landed at > 100 µM
